- TESTED_TARGET: Retinoic acid receptor RXR-alpha (Homo sapiens)
- MEASUREMENT_PROTOCOL: qHTS assay for small molecule agonists of retinoid X receptor alpha signaling (AID 588544)
- EXPERIMENTAL_CONTEXT: HEK293T RXRa-UAS-bla, beta-lactamase reporter, 18 h; series mostly up to 76.7 µM
- Description: NIH Chemical Genomics Center [NCGC] U.S. Environmental Protection Agency [EPA] National Institutes of Environmental Health Sciences [NIEHS] National Toxicology Program [NTP] NCGC Assay Overview The Retinoid X receptor (RXR), a nuclear hormone receptor is expressed in liver, spleen, placenta, epidermis, central nervous system. […]
Records with an inconclusive call do not appear. Activity calls are given as the source filed them. Calls come from the whole dose curve.
Result category, one only: 1 (yes) for active, 0 (no) for inactive

Use these answered entries as a reference point.
[
  {
    "MOLECULE": "CC(C)(N=C=O)c1cccc(C(C)(C)N=C=O)c1",
    "LABEL_CLASS": "0 (no)"
  },
  {
    "MOLECULE": "CC(=O)c1c(C)c([N+](=O)[O-])c(C(C)(C)C)c([N+](=O)[O-])c1C",
    "LABEL_CLASS": "1 (yes)"
  },
  {
    "MOLECULE": "CCCCCc1ccc(N)cc1",
    "LABEL_CLASS": "0 (no)"
  }
]

# ---- query molecule ----
Qu. Outcome? CCCCC(CC)COC(=O)/C=C\C(=O)OCC(CC)CCCC (centres undefined)
Ans. 0 (no)
